Tested on: MS2 coat protein
Assay: apparent KD of MS2 coat protein; higher = weaker reporter binding
Details: Eterna round: R107; input ligand: arginine 13.2 mM
Record form. Attribute: apparent KD of MS2 coat protein. Fill in for each entry.
Give bare numbers, in nM.

Here are 8 sequences together with their reported answers.
>  <sequence-content>
ACAUGAGGGCGAAGGAGCGCGUACAUGAGGAUCACCCAUGUCUAUAUCCGUCCGCGUGUAACGCAGGUAGGUCGCGCUGUUAAUU [#14 Exclusion - Arginine B]

>  <assay-system>
MS2 coat protein

>  <quantitative-readout>
15.4

$$$$
>  <sequence-content>
ACAUGAGGAUCACCCAUGUGAAGCAGGGUACGAGGACCGGUACGGCCGCCACUCGAGCAUUAUAACGAGUGAAUGGCAACGAUGU [whbob_Ex_trypto A_2s16]

>  <assay-system>
MS2 coat protein

>  <quantitative-readout>
11.7

$$$$
>  <sequence-content>
AUUCAUGGAAACAUGACAUAGGGAUCCGGUCGAGGACCGGUACGGCCGCCACUCGUUUGGAGGCACAUGAGGAUCACCCAUGUUA [SS Tryp A #7]

>  <assay-system>
MS2 coat protein

>  <quantitative-readout>
40.7

$$$$
>  <sequence-content>
AAAACUCAUGGCUUAUAUCCGUGUCUCGAAGGAGCGUACAGCGGUACAGGUAGGUCGCGAGACAUGAGGAUCACCCAUGUGUAAA [XArg-A 20 V1&2 original #dotplot2>1]

>  <assay-system>
MS2 coat protein

>  <quantitative-readout>
22.3

$$$$
>  <sequence-content>
GGUUACUCUACGGCCGCCACUGAUUAUUUAUAAUCCUGUACAUAAACAUGAGGAUCACCCAUGUACAGGACCGGGUAGUGUAACC [Tryptophan B 11]

>  <assay-system>
MS2 coat protein

>  <quantitative-readout>
29.9

$$$$
>  <sequence-content>
AGAUGUAGCGGAAGGAGCGACUUGAGGAUCACCCAAGUCUCCCGUUGUGGGAGUUCCUUAGGUCAGGUAGGUCGCCGUUACGUCA [Omei Arg B SS B v3]

>  <assay-system>
MS2 coat protein

>  <quantitative-readout>
31.6

$$$$
>  <sequence-content>
ACUAGUUGUGCAGAUACCAGACAUGAGGAUCACCCAUGUUUGGGAUGUUCGCAUCUUCCUGUCCCUUGGCAGCUGUACAUCUAGA [Omei Theo B Exc v4]

>  <assay-system>
MS2 coat protein

>  <quantitative-readout>
60.9

$$$$
>  <sequence-content>
CUAAUUAAAUCGGCCGCCACUUACUCAUGAGGUAACAACAUGAGGAUCACCCAUGUUUGAGGAUCAAGGACCGGGAUUUAAUUAG [AstrosSSTry#23]

>  <assay-system>
MS2 coat protein

>  <quantitative-readout>
24.9

$$$$

Here are 4 sequences. What values of apparent KD of MS2 coat protein were reported for them?
1. CACUACAUGAGGAUCACCCAUGUAUACUGACGAGGACCGGUACGGCCGCCACUCGAACCGAAACCGACUUCAUUCUGUGUACCAU [theeternabot_sameState_MS2_Trp_A_26]
2. ACAUGAGGAUCACCCAUGUAUGGCGCGGAAGGAGCGUGAUUAAGCACAGGUAGGUCGCUGCGUUGAUCGAGCGUUAGCUCGAUAA [SSArg A #9]
3. CCUAUCCAGUCGGCCGCCACUGACCAUUUGGAACAGUGGGUGAAAACAUGAGGAUCACCCAUGUACAGGACCGGGACUGUAUAGG [Ex Tryptophan B 20]
4. CUUGGUAGAUCCUAGCUGCCAAGAGGUGAUACCAGCAUCGAAAGAUGCCCUUGGCAGCACCAACAUGAGGAUCACCCAUGUAAUA [(MT)''-(M)'-(T')-(Theo)-(Ms2)_Design1/22_4]

[15, 15.8, 14.7, 24.3]
